Biological target: T1, HCoV-229E S1 subunit (17–560 aa) (human coronavirus 229E, UniProt P15423 17-560)
T1 chain: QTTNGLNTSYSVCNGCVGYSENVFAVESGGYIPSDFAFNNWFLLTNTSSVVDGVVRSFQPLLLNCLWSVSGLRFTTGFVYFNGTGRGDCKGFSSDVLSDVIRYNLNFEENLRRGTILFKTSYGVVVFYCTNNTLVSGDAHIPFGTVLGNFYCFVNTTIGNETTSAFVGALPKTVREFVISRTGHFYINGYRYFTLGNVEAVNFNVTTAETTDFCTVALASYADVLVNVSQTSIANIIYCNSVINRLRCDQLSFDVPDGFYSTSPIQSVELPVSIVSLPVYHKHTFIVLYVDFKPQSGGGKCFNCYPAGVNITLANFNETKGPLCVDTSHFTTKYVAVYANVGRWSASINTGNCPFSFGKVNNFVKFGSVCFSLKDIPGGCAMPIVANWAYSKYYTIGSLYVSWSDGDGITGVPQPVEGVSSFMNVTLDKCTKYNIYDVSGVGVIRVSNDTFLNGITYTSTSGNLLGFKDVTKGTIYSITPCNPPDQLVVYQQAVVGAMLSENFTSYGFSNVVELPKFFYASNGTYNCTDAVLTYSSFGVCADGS
Test: SPR
Observed property: pKd
Kindly note that pKd refers to -log10 of the concentration in mol/L and answer with the value alone.

Fab C04 (Fab, V domains shown) VH: EVQLVESGGGLVQPGGSLRLSCAASGFNISSSYIHWVRQAPGKGLEWVASIYSSYGYTYYADSVKGRFTISADTSKNTAYLQMNSLRAEDTAVYYCARWWASVGGAGGGLDYWGQGTLVTVSS VL: DIQMTQSPSSLSASVGDRVTITCRASQSVSSAVAWYQQKPGKAPKLLIYSASSLYSGVPSRFSGSRSGTDFTLTISSLQPEDFATYYCQQGYGWLITFGQGTKVEIK : 8.14
Fab A10 (Fab, V domains shown) VH: EVQLVESGGGLVQPGGSLRLSCAASGFNISSYYMHWVRQAPGKGLEWVAYISPYSGYTYYADSVKGRFTISADTSKNTAYLQMNSLRAEDTAVYYCARAHYPYHGSYWGLDYWGQGTLVTVSS VL: DIQMTQSPSSLSASVGDRVTITCRASQSVSSAVAWYQQKPGKAPKLLIYSASSLYSGVPSRFSGSRSGTDFTLTISSLQPEDFATYYCQQAGYVPITFGQGTKVEIK : 8.44
Fab F07 (Fab, V domains shown) VH: EVQLVESGGGLVQPGGSLRLSCAASGFNISYYSIHWVRQAPGKGLEWVASIYPYYGYTSYADSVKGRFTISADTSKNTAYLQMNSLRAEDTAVYYCARSSGYYHYPYSHSGLDYWGQGTLVTVSS VL: DIQMTQSPSSLSASVGDRVTITCRASQSVSSAVAWYQQKPGKAPKLLIYSASSLYSGVPSRFSGSRSGTDFTLTISSLQPEDFATYYCQQSYYWGGPITFGQGTKVEIK : 9.15
Fab D12 (Fab, V domains shown) VH: EVQLVESGGGLVQPGGSLRLSCAASGFNLSSYSMHWVRQAPGKGLEWVAYISPYYSYTSYADSVKGRFTISADTSKNTAYLQMNSLRAEDTAVYYCARVWYHSYPGWVPWGSWAFDYWGQGTLVTVSS VL: DIQMTQSPSSLSASVGDRVTITCRASQSVSSAVAWYQQKPGKAPKLLIYSASSLYSGVPSRFSGSRSGTDFTLTISSLQPEDFATYYCQQAYYSPITFGQGTKVEIK : 8.96
Fab B09 (Fab, V domains shown) VH: EVQLVESGGGLVQPGGSLRLSCAASGFNLSYSSIHWVRQAPGKGLEWVAYIYPYYGSTYYADSVKGRFTISADTSKNTAYLQMNSLRAEDTAVYYCARSWSPSSSYPGYGGLDYWGQGTLVTVSS VL: DIQMTQSPSSLSASVGDRVTITCRASQSVSSAVAWYQQKPGKAPKLLIYSASSLYSGVPSRFSGSRSGTDFTLTISSLQPEDFATYYCQQSWSYYGSLFTFGQGTKVEIK : 7.49

Could you now look at the following binder, please?
Q. Note down pKd recorded for Fab D04 (Fab, V domains shown) VH: EVQLVESGGGLVQPGGSLRLSCAASGFNLSSYYIHWVRQAPGKGLEWVASISPYSSSTYYADSVKGRFTISADTSKNTAYLQMNSLRAEDTAVYYCARWYSPSYGWYWPYASGAGGLDYWGQGTLVTVSS VL: DIQMTQSPSSLSASVGDRVTITCRASQSVSSAVAWYQQKPGKAPKLLIYSASSLYSGVPSRFSGSRSGTDFTLTISSLQPEDFATYYCQQSSPHYLITFGQGTKVEIK
A. 8.70
